In this section we review reported Neutralization IC50, H1-Kaw86 values for a set of binders.
assayed.system: HA of A/Kawasaki/9/86 (H1N1) (influenza A virus)
assay: cell-based or functional assay
observation.type: Neutralization IC50, H1-Kaw86 (µg/mL)

>>> endpoint_value("Antibody 3 (antibody, V domains shown) VH: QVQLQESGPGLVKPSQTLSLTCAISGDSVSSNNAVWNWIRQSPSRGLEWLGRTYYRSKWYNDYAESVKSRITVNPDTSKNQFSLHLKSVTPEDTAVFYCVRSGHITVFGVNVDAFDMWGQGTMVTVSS VL: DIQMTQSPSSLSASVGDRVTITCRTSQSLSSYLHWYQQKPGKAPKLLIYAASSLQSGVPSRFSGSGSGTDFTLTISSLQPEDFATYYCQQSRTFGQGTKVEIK")
0.58
>>> endpoint_value("Antibody 5 (antibody, V domains shown) VH: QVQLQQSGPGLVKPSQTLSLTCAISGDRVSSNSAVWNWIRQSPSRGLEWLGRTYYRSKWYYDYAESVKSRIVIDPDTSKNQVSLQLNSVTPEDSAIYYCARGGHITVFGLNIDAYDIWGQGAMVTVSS VL: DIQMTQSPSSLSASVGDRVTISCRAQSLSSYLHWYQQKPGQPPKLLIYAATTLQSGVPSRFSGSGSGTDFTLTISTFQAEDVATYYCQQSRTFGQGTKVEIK")
1.01
>>> endpoint_value("Antibody 8 (antibody, V domains shown) VH: QVQLQQSGPGLVKPSQTLSLTCVISGDTVSSNRATWNWMRQSPLRGLEWLGRTYYRSKWYNDYAVSVKSRVVINPDTSKNQVSLQLNTVTPDDSGVYFCARGGHITVFGVNIDAFDIWGLGTKVTVSS VL: DIQMTQSPSSLSASVGDRVTISCRASQRLNSYLHWYQQTPGQAPKLLIYATSTLQSGVSPRFSGSGSGTDFTLTISSLQPEDVATYYCQLSRTFGHGTKVEIK")
2.11
>>> endpoint_value("Antibody 6 (antibody, V domains shown) VH: QVQLQQSGPGLVKPSQTLSLTCAISGDRVSSNSAVWNWIRQSPSRGLEWLGRTYYRSKWYYDYAESVKSRIVIDPDTSKNQVSLQLNSVTPEDSAIYYCARGGHITEFGLNIDAYDIWGQGAMVTVSS VL: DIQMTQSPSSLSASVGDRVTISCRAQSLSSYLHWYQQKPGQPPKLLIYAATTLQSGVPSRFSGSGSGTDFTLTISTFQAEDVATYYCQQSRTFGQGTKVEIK")
3.51
>>> endpoint_value("Antibody 10 (antibody, V domains shown) VH: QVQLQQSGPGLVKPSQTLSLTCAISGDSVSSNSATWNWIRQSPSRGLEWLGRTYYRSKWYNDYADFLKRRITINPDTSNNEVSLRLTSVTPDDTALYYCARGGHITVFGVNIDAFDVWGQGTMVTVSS VL: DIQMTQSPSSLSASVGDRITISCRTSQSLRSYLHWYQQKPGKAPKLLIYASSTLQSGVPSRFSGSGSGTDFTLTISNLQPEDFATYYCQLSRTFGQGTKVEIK")
1.62
